Source: ChEMBL document CHEMBL3797053

Molecular target: 5'-nucleotidase (Rattus norvegicus)
Sequence (P21588 whole entry): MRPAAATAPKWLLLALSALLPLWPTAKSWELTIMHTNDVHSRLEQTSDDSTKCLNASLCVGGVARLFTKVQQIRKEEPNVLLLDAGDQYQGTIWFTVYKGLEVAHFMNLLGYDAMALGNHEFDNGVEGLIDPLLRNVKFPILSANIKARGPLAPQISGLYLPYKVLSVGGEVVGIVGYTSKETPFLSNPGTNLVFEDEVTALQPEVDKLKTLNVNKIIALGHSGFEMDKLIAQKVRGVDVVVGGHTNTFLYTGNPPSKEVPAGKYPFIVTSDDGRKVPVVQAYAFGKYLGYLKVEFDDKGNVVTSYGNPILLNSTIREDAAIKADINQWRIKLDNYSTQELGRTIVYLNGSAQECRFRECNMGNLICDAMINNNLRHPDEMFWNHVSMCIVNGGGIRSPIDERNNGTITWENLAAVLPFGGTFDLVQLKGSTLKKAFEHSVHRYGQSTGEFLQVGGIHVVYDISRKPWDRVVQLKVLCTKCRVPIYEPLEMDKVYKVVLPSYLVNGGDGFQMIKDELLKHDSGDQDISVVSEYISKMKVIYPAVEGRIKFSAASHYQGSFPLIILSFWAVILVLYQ
Assay: Inhibition of rat Ecto-5'-nucleotidase transfected in COS7 cells preincubated for 10 mins followed by AMP addition measured after 10 mins
Format: cell-based, COS-7
pKi: −log10 of the molar value.
I would appreciate it if you labelled entries y when pKi is 7 or higher, otherwise n.

>>> label("CCOC1Oc2c(Br)cc(Br)cc2C(=O)/C1=C\\Nc1cccc(S(N)(=O)=O)c1 (racemic)")
"y"
>>> label("CCOC1Oc2ccc(Br)cc2C(=O)/C1=C\\Nc1cccc(S(N)(=O)=O)c1 (racemic)")
"n"
>>> label("CCOC1Oc2ccc(CC)cc2C(=O)/C1=C\\Nc1ccc(S(N)(=O)=O)cc1 (racemic)")
"n"
>>> label("CCOC1Oc2ccccc2C(=O)/C1=C\\Nc1ccc(S(=O)(=O)Nc2ccccn2)cc1 (racemic)")
"n"

For the next question, use this compound.
IN: Could you please find out whether CCOC1Oc2ccc(CC)cc2C(=O)/C1=C\Nc1ccccc1S(N)(=O)=O (racemic) has pKi that meets 7 or exceeds it?
OUT: y

====

biological target: UniProt:P19111
Sequence (P19111 whole entry): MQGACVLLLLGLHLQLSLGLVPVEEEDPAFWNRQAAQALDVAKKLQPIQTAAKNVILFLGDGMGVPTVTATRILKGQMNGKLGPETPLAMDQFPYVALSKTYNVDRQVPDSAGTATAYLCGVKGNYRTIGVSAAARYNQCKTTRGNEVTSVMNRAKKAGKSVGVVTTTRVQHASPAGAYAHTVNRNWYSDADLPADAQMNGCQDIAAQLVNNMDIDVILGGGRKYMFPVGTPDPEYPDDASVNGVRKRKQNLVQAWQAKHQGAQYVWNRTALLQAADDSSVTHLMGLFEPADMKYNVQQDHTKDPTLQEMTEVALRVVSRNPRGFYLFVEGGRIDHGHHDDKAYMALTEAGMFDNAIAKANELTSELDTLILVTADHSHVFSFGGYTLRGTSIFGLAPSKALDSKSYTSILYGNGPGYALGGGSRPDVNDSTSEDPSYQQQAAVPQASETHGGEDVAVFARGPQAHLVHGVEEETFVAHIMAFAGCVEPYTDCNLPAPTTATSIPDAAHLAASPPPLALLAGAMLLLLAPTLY
Returns: string. Value is TRUE if measured IC50 is below 2 µM, and FALSE if it is greater than or equal to it.

See these solved cases before continuing.
>>> label("CC(C)OC1Oc2ccccc2C(=O)/C1=C\\Nc1ccc(S(N)(=O)=O)cc1 (racemic)")
"TRUE"
>>> label("COC1Oc2ccc(Cl)cc2C(=O)/C1=C\\Nc1cccc(S(N)(=O)=O)c1 (racemic)")
"FALSE"
>>> label("COC1Oc2ccc(F)cc2C(=O)/C1=C\\Nc1ccc(S(N)(=O)=O)cc1 (racemic)")
"FALSE"
>>> label("COC1Oc2ccc(Cl)cc2C(=O)/C1=C\\Nc1ccccc1S(N)(=O)=O (racemic)")
"FALSE"

IN: Bench note: check whether CCCCOC1Oc2ccccc2C(=O)/C1=C\Nc1ccc(S(N)(=O)=O)cc1 (racemic) shows IC50 below 2 µM
OUT: FALSE

IN: Bench note: check whether COC1Oc2ccccc2C(=O)/C1=C\Nc1ccc(S(N)(=O)=O)cc1 (racemic) shows IC50 below 2 µM
OUT: TRUE

IN: Bench note: check whether COC1Oc2c(Cl)cc(Cl)cc2C(=O)/C1=C\Nc1cccc(S(N)(=O)=O)c1 (racemic) shows IC50 below 2 µM
OUT: FALSE

IN: Bench note: check whether COC1Oc2ccc(Cl)cc2C(=O)/C1=C\Nc1ccc(S(N)(=O)=O)cc1 (racemic) shows IC50 below 2 µM
OUT: FALSE
